test.system: Cytochrome P450 1A2 (Homo sapiens) (UniProt P05177)
Sequence (P05177 whole entry, looked up): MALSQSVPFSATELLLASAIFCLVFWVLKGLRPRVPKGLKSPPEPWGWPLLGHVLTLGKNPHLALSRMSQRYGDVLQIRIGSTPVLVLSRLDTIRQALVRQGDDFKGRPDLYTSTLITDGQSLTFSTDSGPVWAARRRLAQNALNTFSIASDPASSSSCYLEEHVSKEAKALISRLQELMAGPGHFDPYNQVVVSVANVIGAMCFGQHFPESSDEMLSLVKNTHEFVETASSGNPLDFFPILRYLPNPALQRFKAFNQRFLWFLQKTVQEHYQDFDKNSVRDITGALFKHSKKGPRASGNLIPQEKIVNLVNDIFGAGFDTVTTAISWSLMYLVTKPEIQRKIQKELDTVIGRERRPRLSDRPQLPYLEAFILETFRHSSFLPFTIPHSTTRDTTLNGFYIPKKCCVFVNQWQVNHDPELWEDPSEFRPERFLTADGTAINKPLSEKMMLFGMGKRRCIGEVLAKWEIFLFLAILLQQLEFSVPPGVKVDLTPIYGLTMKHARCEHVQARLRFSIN
procedure.details: Cytochrome panel assay with activity outcomes
experimental.context: recombinant CYP, pro-luciferin dealkylation, luminescence, p450-cyp1a2; series mostly up to 57.1 µM
The campaign covered roughly 16,000 compounds. About 5,700 (36%) were called active. About 24% were inconclusive and are not listed. The list shows a part of the results.
measurement.label: AC50

>  <molecule>
COCCNC(=O)c1cc(-c2cccc(OC)c2)on1

>  <test.system>
Cytochrome P450 1A2 (Homo sapiens) (UniProt P05177)

>  <measurement.label>
AC50

>  <result>
12.6 µM (active)

$$$$
>  <molecule>
NC(=O)c1cc[n+](CC2=C(C(=O)O)N3C(=O)[C@@H](NC(=O)[C@H](c4ccccc4)S(=O)(=O)[O-])[C@@H]3SC2)cc1

>  <test.system>
Cytochrome P450 1A2 (Homo sapiens) (UniProt P05177)

>  <measurement.label>
AC50

>  <result>
inactive

$$$$
>  <molecule>
CCC(C)[C@H](NC(=O)NC1CCN(Cc2ccccc2)CC1)C(=O)OC (stereo partly specified)

>  <test.system>
Cytochrome P450 1A2 (Homo sapiens) (UniProt P05177)

>  <measurement.label>
AC50

>  <result>
inactive

$$$$
>  <molecule>
CC(=O)[C@@H]1[C@@H]2C(=O)N(C3CCCCC3)C(=O)[C@@H]2C2c3ccccc3C=CN21 (stereo partly specified)

>  <test.system>
Cytochrome P450 1A2 (Homo sapiens) (UniProt P05177)

>  <measurement.label>
AC50

>  <result>
15.8 µM (active)

$$$$
>  <molecule>
CN(C)[C@H]1C(=O)C(C(=O)NCN2CCCC2)=C(O)[C@]2(O)C(=O)C3=C(O)c4c(O)cccc4[C@@](C)(O)[C@H]3C[C@@H]12

>  <test.system>
Cytochrome P450 1A2 (Homo sapiens) (UniProt P05177)

>  <measurement.label>
AC50

>  <result>
inactive

$$$$
>  <molecule>
CCN1CCC[C@H]1CNC(=O)c1cc(S(N)(=O)=O)ccc1OC

>  <test.system>
Cytochrome P450 1A2 (Homo sapiens) (UniProt P05177)

>  <measurement.label>
AC50

>  <result>
inactive

$$$$
>  <molecule>
CSc1nc(C)c(CCOC(=O)c2cccc(C)c2)c(=O)[nH]1

>  <test.system>
Cytochrome P450 1A2 (Homo sapiens) (UniProt P05177)

>  <measurement.label>
AC50

>  <result>
inactive

$$$$
>  <molecule>
O=C(NNC(=O)c1cc2cc3ccccc3nc2s1)c1cccc(Cl)c1

>  <test.system>
Cytochrome P450 1A2 (Homo sapiens) (UniProt P05177)

>  <measurement.label>
AC50

>  <result>
inactive

$$$$
>  <molecule>
COCCNc1nc(SCc2ccccc2)nc2sc3c(c12)CCC3

>  <test.system>
Cytochrome P450 1A2 (Homo sapiens) (UniProt P05177)

>  <measurement.label>
AC50

>  <result>
1 µM (active)

$$$$
>  <molecule>
COc1ccc(-c2cc(C(=O)NCc3cccnc3)no2)cc1OC

>  <test.system>
Cytochrome P450 1A2 (Homo sapiens) (UniProt P05177)

>  <measurement.label>
AC50

>  <result>
20 µM (active)

$$$$
>  <molecule>
CSc1nc2ccccc2cc1/C=C(\C#N)c1cccc(C)c1

>  <test.system>
Cytochrome P450 1A2 (Homo sapiens) (UniProt P05177)

>  <measurement.label>
AC50

>  <result>
3.55 µM (active)

$$$$
>  <molecule>
COc1ccc(C(=O)Nc2ccc(F)cc2F)cc1OC

>  <test.system>
Cytochrome P450 1A2 (Homo sapiens) (UniProt P05177)

>  <measurement.label>
AC50

>  <result>
14.1 µM (active)

$$$$
>  <molecule>
CSc1nc2ccccc2cc1/C=C(\C#N)c1ccccc1

>  <test.system>
Cytochrome P450 1A2 (Homo sapiens) (UniProt P05177)

>  <measurement.label>
AC50

>  <result>
2.82 µM (active)

$$$$
>  <molecule>
CSc1nc2ccccc2cc1/C=C(\C#N)c1ccc(Cl)cc1Cl

>  <test.system>
Cytochrome P450 1A2 (Homo sapiens) (UniProt P05177)

>  <measurement.label>
AC50

>  <result>
1.78 µM (active)

$$$$
>  <molecule>
O=[N+]([O-])c1ccc(N2CCN(CCOc3nonc3-c3ccccc3)CC2)c(Cl)c1

>  <test.system>
Cytochrome P450 1A2 (Homo sapiens) (UniProt P05177)

>  <measurement.label>
AC50

>  <result>
inactive

$$$$
>  <molecule>
FC(F)(F)c1cc(CN2CC3(CCNCC3)C2)cc(C(F)(F)F)c1

>  <test.system>
Cytochrome P450 1A2 (Homo sapiens) (UniProt P05177)

>  <measurement.label>
AC50

>  <result>
inactive

$$$$
>  <molecule>
O=c1cc(N2CCCCC2)c(-c2ccccc2)nn1Cc1ccccc1Cl

>  <test.system>
Cytochrome P450 1A2 (Homo sapiens) (UniProt P05177)

>  <measurement.label>
AC50

>  <result>
1.26 µM (active)

$$$$
>  <molecule>
OCCNc1nc(SCc2ccccc2)nc2sc3c(c12)CCC3

>  <test.system>
Cytochrome P450 1A2 (Homo sapiens) (UniProt P05177)

>  <measurement.label>
AC50

>  <result>
1 µM (active)

$$$$
>  <molecule>
CNc1cc(OC)c(C(=O)N[C@@H]2CCN(Cc3ccccc3)[C@H]2C)cc1Cl

>  <test.system>
Cytochrome P450 1A2 (Homo sapiens) (UniProt P05177)

>  <measurement.label>
AC50

>  <result>
31.6 µM (active)

$$$$
>  <molecule>
CC(CO)Nc1nc(SCc2ccccc2)nc2sc3c(c12)CCC3 (stereo unspecified)

>  <test.system>
Cytochrome P450 1A2 (Homo sapiens) (UniProt P05177)

>  <measurement.label>
AC50

>  <result>
0.2 µM (active)

$$$$
>  <molecule>
O=C1C2C3C=CC([C@@H]2C(=O)N1C1CCCCC1)[C@H]1C(=O)N(C2CCCCC2)C(=O)C31 (stereo partly specified)

>  <test.system>
Cytochrome P450 1A2 (Homo sapiens) (UniProt P05177)

>  <measurement.label>
AC50

>  <result>
inactive

$$$$

meta.source: PubChem BioAssay AID1851
